// provenance: PubChem BioAssay AID2060510

System: 439559-082-T-J2-PDC spheroids viability
Test: Anticancer human tumor 439559-082-T-J2-PDC patient-derived colon adenocarcinoma cell line growth inhibition [GQUAD]
Details: second compound 0.0316 µM; first compound 0.1 µM; stronger effect = lower value
# reported viability, T/C; entries follow
Report as a plain number; the unit % is understood.

Example cases with answers are listed next.
compound	viability, T/C [%]
CC(=O)O[C@H]1C(=O)[C@@]2(C)[C@H]([C@H](OC(=O)c3ccccc3)[C@]3(O)C[C@H](OC(=O)[C@H](O)[C@@H](NC(=O)c4ccccc4)c4ccccc4)C(C)=C1C3(C)C)[C@]1(OC(C)=O)CO[C@@H]1C[C@@H]2O + Cc1[nH]c2ccc(F)cc2c1-c1nc2c3cccnc3c3ncccc3c2[nH]1	81.4
O=C(c1cc(Cc2n[nH]c(=O)c3ccccc23)ccc1F)N1CCN(C(=O)C2CC2)CC1 + Cc1cnc(CNC(=O)c2c(=O)c3ccc(N4CCCN(C)CC4)nc3n3c2sc2ccccc23)cn1	99.1

Now for another entry.
Task item: Can you look up the measured viability, T/C of CC1COCCN1c1cc(C2(O)CC3CCC(C2)O3)c2cnn(-c3ccn[nH]3)c2n1 (stereo not drawn) + Cc1cnc(CNC(=O)c2c(=O)c3ccc(N4CCCN(C)CC4)nc3n3c2sc2ccccc23)cn1 for me?
Reply: 85.1

---

Test system: 439559-082-T-J2-PDC spheroids viability
Assay: Anticancer human tumor 439559-082-T-J2-PDC cell line growth inhibition [GQUAD];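 further: spheroids exposed to the agents for 7 days before readout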
Conditions: curve of first compound; second compound 0.316 µM
Source text: DNA G-quadruplex Stabilizer Agents in Combinations in Complex Spheroids A high-throughput screen of multi-cell type tumor spheroids was designed to identify active combinations of DNA G-quadruplex stabilizer agents and targeted small molecules. […] Compounds. […] If the clinical Cmax for an agent had not been determined, the highest concentration tested was 10 microM. […]
# reported IC50; entries follow

Example cases with answers are listed next.
In [3]: df
Out[3]:
                                   compound  observed_measurement
0  CCCS(=O)(=O)Nc1ccc(F)c(C(=O)c2c[nH]c3ncc(-c4ccc(Cl)cc4)cc23)c1F + Cc1[nH]c2ccc(F)cc2c1-c1nc2c3cccnc3c3ncccc3c2[nH]1                3.1 µM
1  COc1ccc([C@@H](O)c2cc(-c3ncnc4cc(N5CCOCC5)ccc34)c(F)cc2Cl)nn1 + Cc1[nH]c2ccc(F)cc2c1-c1nc2c3cccnc3c3ncccc3c2[nH]1               > 10 µM

Now for another entry.
Task item: What value of IC50 on 439559-082-T-J2-PDC spheroids viability does CC[C@@]1(O)C(=O)OCc2c1cc1n(c2=O)Cc2cc3c(CN(C)C)c(O)ccc3nc2-1 + Cc1[nH]c2ccc(F)cc2c1-c1nc2c3cccnc3c3ncccc3c2[nH]1 have?
Reply: > 0.316 µM

---

System: 439559-082-T-J2-PDC spheroids viability
Experiment: Anticancer human tumor 439559-082-T-J2-PDC cell line growth inhibition [GQUAD];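 further: spheroids exposed to the agents for 7 days before readout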;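 on viability, T/C: percent of luminescence signal in DMSO vehicle wells taken as 100% viability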
Details: second compound 10 µM; first compound 10 µM; stronger effect = lower value
Response field label: string, one of yes (1) (viability, T/C strictly below 40%) or no (0).

Reference set, count: 4
molecule	group
C=CCn1c(=O)c2cnc(Nc3ccc(N4CCN(C)CC4)cc3)nc2n1-c1cccc(C(C)(C)O)n1 + Cc1[nH]c2ccc(F)cc2c1-c1nc2c3cccnc3c3ncccc3c2[nH]1	yes (1)
Cc1cccc(N(C)C(=O)C2C(O)CCN2c2nc(C)cc(C(F)(F)F)c2C#N)c1 (centres undefined) + Cc1[nH]c2ccc(F)cc2c1-c1nc2c3cccnc3c3ncccc3c2[nH]1	no (0)
C#Cc1c(F)ccc2cc(O)cc(-c3ncc4c(N5CC6CCC(C5)N6)nc(OCC56CCCN5CC(F)C6)nc4c3F)c12 (centres undefined) + Cc1cnc(CNC(=O)c2c(=O)c3ccc(N4CCCN(C)CC4)nc3n3c2sc2ccccc23)cn1	yes (1)
CC(=O)O[C@H]1C(=O)[C@@]2(C)[C@H]([C@H](OC(=O)c3ccccc3)[C@]3(O)C[C@H](OC(=O)[C@H](O)[C@@H](NC(=O)c4ccccc4)c4ccccc4)C(C)=C1C3(C)C)[C@]1(OC(C)=O)CO[C@@H]1C[C@@H]2O + Cc1cnc(CNC(=O)c2c(=O)c3ccc(N4CCCN(C)CC4)nc3n3c2sc2ccccc23)cn1	yes (1)

Task item: Take the molecule C=CCn1c(=O)c2cnc(Nc3ccc(N4CCN(C)CC4)cc3)nc2n1-c1cccc(C(C)(C)O)n1 + CN(C)c1ccc(Nc2c3ccc(NC(=O)CCN4CCCC4)cc3nc3cc(NC(=O)CCN4CCCC4)ccc23)cc1 and say whether its viability, T/C is less than 40%.
Reply: yes (1)

Task item: Take the molecule COc1cc(C2c3cc4c(cc3C(OC3OC5COC(C)OC5C(O)C3O)C3COC(=O)C23)OCO4)cc(OC)c1O (centres undefined) + Cc1cnc(CNC(=O)c2c(=O)c3ccc(N4CCCN(C)CC4)nc3n3c2sc2ccccc23)cn1 and say whether its viability, T/C is less than 40%.
Reply: no (0)

Task item: Take the molecule COc1cc(C2c3cc4c(cc3C(OC3OC5COC(C)OC5C(O)C3O)C3COC(=O)C23)OCO4)cc(OC)c1O (centres undefined) + CN(C)c1ccc(Nc2c3ccc(NC(=O)CCN4CCCC4)cc3nc3cc(NC(=O)CCN4CCCC4)ccc23)cc1 and say whether its viability, T/C is less than 40%.
Reply: no (0)

Task item: Take the molecule COc1cccc2c1C(=O)c1c(O)c3c(c(O)c1C2=O)CC(O)(C(=O)CO)CC3OC1CC(N)C(O)C(C)O1 (centres undefined) + Cc1[nH]c2ccc(F)cc2c1-c1nc2c3cccnc3c3ncccc3c2[nH]1 and say whether its viability, T/C is less than 40%.
Reply: no (0)

---

# reported viability, T/C; entries follow
System: 439559-082-T-J2-PDC spheroids viability
Experiment: Anticancer human tumor 439559-082-T-J2-PDC cell line growth inhibition [GQUAD];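 further: spheroids exposed to the agents for 7 days before readout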;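 on viability, T/C: percent of luminescence signal in DMSO vehicle wells taken as 100% viability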
Settings: second compound 1 µM; first compound 0.316 µM; stronger effect = lower value
Report as a plain number; the unit % is understood.

compound	subject.of.test	unit.annotation	viability, T/C
COc1cccc2c1C(=O)c1c(O)c3c(c(O)c1C2=O)CC(O)(C(=O)CO)CC3OC1CC(N)C(O)C(C)O1 (stereo not drawn) + Cc1[nH]c2ccc(F)cc2c1-c1nc2c3cccnc3c3ncccc3c2[nH]1	439559-082-T-J2-PDC spheroids viability	%	82.1
CC1COCCN1c1cc(C2(O)CC3CCC(C2)O3)c2cnn(-c3ccn[nH]3)c2n1 (stereo not drawn) + CN(C)c1ccc(Nc2c3ccc(NC(=O)CCN4CCCC4)cc3nc3cc(NC(=O)CCN4CCCC4)ccc23)cc1	439559-082-T-J2-PDC spheroids viability	%	75.7

Now for another entry.
Task item: What value of viability, T/C on 439559-082-T-J2-PDC spheroids viability does CC[C@@]1(O)C(=O)OCc2c1cc1n(c2=O)Cc2cc3c(CN(C)C)c(O)ccc3nc2-1 + Cc1cnc(CNC(=O)c2c(=O)c3ccc(N4CCCN(C)CC4)nc3n3c2sc2ccccc23)cn1 have?
Reply: 67.4

---

Tested on: 439559-082-T-J2-PDC spheroids viability
Assay: Anticancer human tumor 439559-082-T-J2-PDC cell line growth inhibition [GQUAD];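 further: spheroids exposed to the agents for 7 days before readout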;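 on viability, T/C: percent of luminescence signal in DMSO vehicle wells taken as 100% viability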
Settings: second compound 1 µM; first compound 3.16 µM; stronger effect = lower value
quantity.name: viability, T/C (%)
Report as a plain number; the unit % is understood.

compound	observed.measurement
COc1cccc2c1C(=O)c1c(O)c3c(c(O)c1C2=O)CC(O)(C(=O)CO)CC3OC1CC(N)C(O)C(C)O1 (stereo not given) + Cc1[nH]c2ccc(F)cc2c1-c1nc2c3cccnc3c3ncccc3c2[nH]1	67.3
CC1COCCN1c1cc(C2(S(C)(=N)=O)CC2)nc(-c2ccnc3[nH]ccc23)n1 (stereo not given) + Cc1cnc(CNC(=O)c2c(=O)c3ccc(N4CCCN(C)CC4)nc3n3c2sc2ccccc23)cn1	75.8
O=C(c1cc(Cc2n[nH]c(=O)c3ccccc23)ccc1F)N1CCN(C(=O)C2CC2)CC1 + Cc1cnc(CNC(=O)c2c(=O)c3ccc(N4CCCN(C)CC4)nc3n3c2sc2ccccc23)cn1	89.7

Task item: Can you look up the measured viability, T/C of O=C(c1cc(Cc2n[nH]c(=O)c3ccccc23)ccc1F)N1CCN(C(=O)C2CC2)CC1 + Cc1[nH]c2ccc(F)cc2c1-c1nc2c3cccnc3c3ncccc3c2[nH]1 for me?
Reply: 105

---

# reported viability, T/C; entries follow
System: 439559-082-T-J2-PDC spheroids viability
Test: Anticancer human tumor 439559-082-T-J2-PDC cell line growth inhibition [GQUAD];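 further: spheroids exposed to the agents for 7 days before readout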;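 on viability, T/C: percent of luminescence signal in DMSO vehicle wells taken as 100% viability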
Conditions: second compound 0.0316 µM; first compound 0.1 µM; stronger effect = lower value
Report as a plain number; the unit % is understood.

Example cases with answers are listed next.
compound	unit.annotation	viability, T/C
CCCS(=O)(=O)Nc1ccc(F)c(C(=O)c2c[nH]c3ncc(-c4ccc(Cl)cc4)cc23)c1F + CN(C)c1ccc(Nc2c3ccc(NC(=O)CCN4CCCC4)cc3nc3cc(NC(=O)CCN4CCCC4)ccc23)cc1	%	93.8
O=c1[nH]cc(F)c(=O)[nH]1 + CN(C)c1ccc(Nc2c3ccc(NC(=O)CCN4CCCC4)cc3nc3cc(NC(=O)CCN4CCCC4)ccc23)cc1	%	103

Now for another entry.
Task item: Can you look up the measured viability, T/C of COc1ccc([C@@H](O)c2cc(-c3ncnc4cc(N5CCOCC5)ccc34)c(F)cc2Cl)nn1 + Cc1cnc(CNC(=O)c2c(=O)c3ccc(N4CCCN(C)CC4)nc3n3c2sc2ccccc23)cn1 for me?
Reply: 95.8
